Measured values drawn from patent US6770632B1 for this set.

Test system: 9L cells
Assay Method Text: [3H]MTX accumulation and thin layer chromatography of MTX polyglutamates in 9L cells
Details: 24 hour exposure to 2 μM MTX, TLC
Endpoint Label: POLYGLUTAMATE DISTRIBUTION (percentages of total sample lane radioactivity) (%)

[[record]]
molecule = "CN(Cc1cnc2nc(N)nc(N)c2n1)c1ccc(C(=O)NC(CCC(=O)NC(CCC(=O)O)C(=O)O)C(=O)O)cc1 (centres unmarked) [MTX-G1]"
experimental_result = 29

[[record]]
molecule = "CN(Cc1cnc2nc(N)nc(N)c2n1)c1ccc(C(=O)NC(CCC(=O)NC(CCC(=O)NC(CCC(=O)O)C(=O)O)C(=O)O)C(=O)O)cc1 (centres unmarked) [MTX-G2]"
experimental_result = 15

[[record]]
molecule = "CN(Cc1cnc2nc(N)nc(N)c2n1)c1ccc(C(=O)NC(CCC(=O)NC(CCC(=O)NC(CCC(=O)NC(CCC(=O)NC(CCC(=O)NC(CCC(=O)O)C(=O)O)C(=O)O)C(=O)O)C(=O)O)C(=O)O)C(=O)O)cc1 (centres unmarked) [MTX-G5]"
experimental_result = 1

[[record]]
molecule = "CN(Cc1cnc2nc(N)nc(N)c2n1)c1ccc(C(=O)NC(CCC(=O)NC(CCC(=O)NC(CCC(=O)NC(CCC(=O)NC(CCC(=O)O)C(=O)O)C(=O)O)C(=O)O)C(=O)O)C(=O)O)cc1 (centres unmarked) [MTX-G4]"
experimental_result = 13

[[record]]
molecule = "CN(Cc1cnc2nc(N)nc(N)c2n1)c1ccc(C(=O)NC(CCC(=O)NC(CCC(=O)NC(CCC(=O)NC(CCC(=O)O)C(=O)O)C(=O)O)C(=O)O)C(=O)O)cc1 (centres unmarked) [MTX-G3]"
experimental_result = 13

